# Experiment: in vivo
# Setup Conditions: athymic nude, mouse, po, 15 mg/kg
Result Type: Tmax (min)

INSERT INTO measurements (molecule, reported_value) VALUES
  ('C#CCNC1CCc2ccccc21 (stereo not shown) [Rasagiline, N-propargyl-1-aminoindan]', 15);

====

# Experiment: in vivo
# Setup Conditions: athymic nude, mouse, po, 15 mg/kg
Result Type: concentration at 0.25 h (ng/mL)

INSERT INTO results (compound, result_type, reported_value) VALUES
  ('C#CCNC1CCc2ccccc21 (stereo not shown)', 'concentration at 0.25 h', 899);

====

# Experiment: in vivo
# Setup Conditions: athymic nude, mouse, po, 15 mg/kg
# Procedure: At the end of the 21-day treatment duration, 2 animals from each group were euthanized at each of the following time points by isoflurane inhalation (0.5, 1, 2, 4, 8, and 24 hours after the last administration of the test articles including the application of fresh transdermal patches). For the 15 mg/kg PO Rasagiline group, two mice were bled twice (cheek bleed and terminal cardiac) so that ten mice could supply blood samples for six time points. […]
Result Type: Cmax (ng/mL)

INSERT INTO assay_data (compound, scale_unit, reported_value) VALUES
  ('C#CCNC1CCc2ccccc21 (stereo not shown) [Rasagiline, N-propargyl-1-aminoindan]', 'ng/mL', 899);
